Test system: OVCAR-3 ovarian
Assay: NCI-60 one-dose screen, 48 h (100 = growth as untreated, 0 = no growth, -100 = all killed)
Details: 10 µM unless noted
The panel holds about 83,000 compounds, 20% with a hit somewhere; the sample as a whole holds those more often.
# cutoff 50% applies to growth; >= gives Satisfied, < gives Not satisfied

smiles_repr=COc1ccc(-n2c(/C=C3\C(=O)Nc4ccccc43)ccc2CO)cc1 assayed_system="OVCAR-3 ovarian" label_value=Satisfied
smiles_repr=CCn1c(SCC(=O)Nc2cccc(C(=O)/C=C/c3ccccc3Cl)c2)nc2ccccc2c1=O assayed_system="OVCAR-3 ovarian" label_value=Satisfied
smiles_repr=COc1ccc(Cn2cc3c(c2-c2cc(OC)c(OC)c(OC)c2)CCc2c(CN4CCCC4)noc2-3)cc1 assayed_system="OVCAR-3 ovarian" label_value="Not satisfied"
smiles_repr=COc1ccccc1N1CCN(C2=CC(=O)C(C)=C(C)C2=O)CC1 assayed_system="OVCAR-3 ovarian" label_value=Satisfied
smiles_repr=Clc1ccc(N/N=c2/oc3ccccc3cc2-c2cc3ccccc3[nH]2)cc1 assayed_system="OVCAR-3 ovarian" label_value="Not satisfied"
smiles_repr=O=C(NNc1nc2cc(F)ccc2n2cccc12)c1ccncn1 assayed_system="OVCAR-3 ovarian" label_value="Not satisfied"
smiles_repr=C#Cc1nc(/C=C/C(=O)c2nccn2C)cs1 assayed_system="OVCAR-3 ovarian" label_value="Not satisfied"
smiles_repr=COc1cc(-c2nnc(SCc3ccc(O)c4ncccc34)n2-c2ccccc2)cc(OC)c1OC assayed_system="OVCAR-3 ovarian" label_value="Not satisfied"

Now for another entry.
**Q:** Is growth for "C=C(C)[C@@H]1CC[C@]2(COC)CC[C@]3(C)[C@H](CC[C@@H]4[C@@]5(C)CCCNC(C)(C)[C@@H]5CC[C@]43C)[C@@H]12" at or above 50%?
**A:** Satisfied

----------
Test system: A498 renal
Assay: NCI-60 one-dose screen, 48 h (100 = growth as untreated, 0 = no growth, -100 = all killed)
Details: 10 µM unless noted
This is part of a sample that, as a whole, favours compounds with a hit. Of some 83,000 tested, about 20% had one in any assay.
quantity_kind: growth (%)
All answers are understood in %, so give the number only.

The following molecules have reported results that may help.
molecule=Cc1ccc(-c2nnc(SCc3ccc(O)c4ncccc34)o2)cc1 unit_text=% test_value=36.5
molecule=CCCCCc1ccc(S(=O)(=O)Nc2cc(-c3csc(NC(=O)CN4CCN(C)CC4)n3)ccc2OC)cc1 unit_text=% test_value=75.2
molecule=NC(N)=Nc1ccc(Oc2cccc(NC(N)=Nc3ccc(Cl)c(C(F)(F)F)c3)c2)cn1 unit_text=% test_value=36.7
molecule=CNC(=O)c1cc(-c2ccc(NC(=S)Nc3cc(C(F)(F)F)cc(C(F)(F)F)c3)cc2)nc2cccnc12 unit_text=% test_value=47.2
molecule="COC(=O)c1[nH]nc2c1C1(C(=O)c3cccc4cccc1c34)C(C#N)=C(N)O2 (configuration not stated)" unit_text=% test_value=82.1
molecule=C[C@H](CCC(=O)NCc1ccc(C(=O)Nc2ccccc2N)cc1)[C@H]1CC[C@H]2[C@@H]3[C@@H](O)C[C@@H]4C[C@H](O)CC[C@]4(C)[C@H]3CC[C@]12C unit_text=% test_value=59.5
molecule=Cc1ccc(-n2cc(/C=C/C(=O)c3ccc(O)cc3)c(-c3ccc(S(C)(=O)=O)cc3)n2)cc1 unit_text=% test_value=99.2
molecule=CS(=O)(=O)Nc1cc(-c2ccc3ncc(C#N)c(N[C@H](CO)c4ccccc4)c3c2)cnc1Cl unit_text=% test_value=7.35

**Q:** What value of growth has been recorded for this entry: COc1ccc(C2c3sc4c(C)cccc4c3Oc3nc(CC(=O)Nc4ccccc4)[nH]c(=O)c32)cc1 (configuration not stated)
**A:** 70.6

**Q:** What do we get for "COc1ccc2c(c1)c(CC(=O)[Se]CC(=O)O)c(C)n2C(=O)c1ccc(Cl)cc1" ?
**A:** 69.3

**Q:** What do we get for "N#Cc1cccc(CN2CCc3ncn(Cc4ccc(Cl)cc4)c(=O)c3C2)c1" ?
**A:** 4.83

**Q:** What do we get for "C=C(C)[C@@H]1CC[C@]2(COP(=O)(OCC)OCC)CC[C@]3(C)[C@H](CC[C@@H]4[C@@]5(C)CCCNC(C)(C)[C@@H]5CC[C@]43C)[C@@H]12" ?
**A:** 55

**Q:** What do we get for "c1n[nH]cc1-c1nc2ccc3[nH]ncc3c2c2c1CCCC2" ?
**A:** -14.2

----------
System: NCI/ADR-RES ovarian
Experiment: NCI-60 one-dose screen, 48 h (100 = growth as untreated, 0 = no growth, -100 = all killed)
Conditions: 10 µM unless noted
Compounds without any hit were thinned out: in the full panel of roughly 83,000, 20% have a hit.
# growth annotations
All answers are understood in %, so give the number only.

The following compounds have reported results that may help.
compound=COc1cc(OC)c(S(N)(=O)=O)cc1C(=O)/C=C/c1ccc(Cl)cc1 test_value=20
compound="COc1cc2nc(Cl)nc(Nc3cccc(C4=Nc5c(N)nc(N)nc5NC(c5ccc(Br)cc5)C4)c3)c2cc1OC (centres undefined)" test_value=86.6
compound=O=C(CSc1nc2ccccc2c(=O)n1-c1ccccc1)Nc1cccc(C(=O)/C=C/c2ccccc2Cl)c1 test_value=104
compound=C=C(C)[C@@H]1CC[C@]2(COP(=O)(OCC)OCC)CC[C@]3(C)[C@H](CC[C@@H]4[C@@]5(C)CCCNC(C)(C)[C@@H]5CC[C@]43C)[C@@H]12 test_value=27.6
compound=O=S(=O)(NCCCNc1nccc(-n2cnc3ccccc32)n1)c1ccc(C(F)(F)F)cc1 test_value=81.1
compound="CNC1CCc2c(sc(NC(=O)c3ccc(C(C)(C)C)cc3)c2C(N)=O)C1 (centres undefined)" test_value=78.2
compound=Cc1ccc(C(=O)NN2C(=O)/C(=C/C=C/c3ccco3)SC2=S)cc1 test_value=97.5
compound=CC(C)(C)n1cc(-c2ccnc(NCCCNS(=O)(=O)c3cccc(F)c3)n2)c(-c2ccc(Cl)c(O)c2)n1 test_value=101

Now for the compound whose growth we want.
**Q:** What value of growth has been recorded for this entry: "COc1cc(Cn2cc3c(c2)-c2onc(CN4CCOCC4)c2CC3)cc(OC)c1OC"
**A:** 100

----------
System: OVCAR-8 ovarian
Experiment: NCI-60 one-dose screen, 48 h (100 = growth as untreated, 0 = no growth, -100 = all killed)
Details: 10 µM unless noted
This is part of a sample that, as a whole, favours compounds with a hit. Of some 83,000 tested, about 20% had one in any assay.
Mark Y only for growth values smaller than 80%; exact matches and larger values are N.

Worked examples follow.
compound=CCc1nn2c(C)cc(C)nc2c1Cc1ccc(/C=C/CN2CCN(CCOCCOCCN3CCN(C/C=C/c4ccc(Cc5c(CC)nn6c(C)cc(C)nc56)cc4)CC3)CC2)cc1 label_value=Y
compound=CCCCCc1ccc(S(=O)(=O)Nc2cccc(-c3csc(NC(=O)CCCCCN4CCN(CCO)CC4)n3)c2)cc1 label_value=N
compound=CS(=O)(=O)Nc1cc(-c2ccc3ncc(C#N)c(N[C@H](CO)c4ccccc4)c3c2)cnc1Cl label_value=Y
compound=CN(C)C(=O)c1cc(-c2ccc3ncnc(NCc4ccccc4)c3c2)cnc1N label_value=N
compound=Nc1nc(Nc2ccccc2SSc2ccccc2Nc2nc(N)nc(-c3ccc4ccccc4c3)n2)nc(-c2ccc3ccccc3c2)n1 label_value=N
compound=O=C(c1ccc(O)c(C(=O)N2Cc3ccc(OCCC[P+](c4ccccc4)(c4ccccc4)c4ccccc4)cc3C2)c1)N1Cc2cccc(F)c2C1 label_value=Y
compound="C[C@@H]1C[C@H]2C(=O)O[C@@H](C)C(NC(=O)[C@H](Cc3cc(F)cc(F)c3)NC(=O)Nc3ccc(Cl)cc3F)C(=O)N3CCC[C@H]3C(=O)N3CCCC[C@H]3C(=O)N[C@@H](CO)C(=O)N2C1 (some centres not stated)" label_value=Y
compound="Cc1cccc2c3c(sc12)C(c1ccc(F)cc1)C(C#N)=C(/N=C/c1ccc(Cl)cc1)O3 (configuration not stated)" label_value=Y
compound=O=S(=O)(NCCNc1nccc(-n2cnc3ccccc32)n1)c1ccc(Br)cc1 label_value=N
compound="O=C(NNc1nc2cc(F)c(F)cc2n2c(CN3CC4CNCC4C3)ccc12)c1ncccn1 (configuration not stated)" label_value=Y

**Q:** Lab log: compare recorded growth with 80%; is it strictly lower for "O=S(=O)(Nc1ccc2c(c1)OCO2)c1ccc(-c2cnc(C3CC3)o2)cc1" ?
**A:** Y

**Q:** What do we get for "COc1ccc2c(c1)c(CC(=O)[Se]CCC#N)c(C)n2C(=O)c1ccc(Cl)cc1" ?
**A:** Y

**Q:** What do we get for CCc1cccc2c3c(sc12)C(c1ccc(Cl)cc1)C(C#N)=C(/N=C/c1ccc(Cl)cc1)O3 (configuration not stated) ?
**A:** Y

**Q:** What do we get for COc1cc2c(cc1OC)C(Sc1ccc(C)cc1)c1c(nc(N)c(C#N)c1N)O2 (configuration not stated) ?
**A:** Y

**Q:** What do we get for "Clc1nc2ccccc2nc1-c1nnc(C2CCCCC2)o1" ?
**A:** N

**Q:** What do we get for "COc1cc(/C=C2\C(=O)Nc3ccccc32)ccc1OCc1ccc(Cl)cc1" ?
**A:** N

**Q:** What do we get for O=C(c1ccc(Cl)cc1)C1[C@H](c2ccc(Cl)cc2)[C@@H](c2ccccc2)NC12C(=O)Nc1ccccc12 (some centres not stated) ?
**A:** Y
